tested on: Plasma; assay: Plasma concentration in human treated with [14C]-labeled milnacipran hydrochloride at 100 mg, po measured at 3 hrs by HPLC analysis; type: ADME, organism-based; details: in vivo
We begin with a simple list: items and their reported Cp.
# output: bare number, implied unit ng.Eq/ml

Consider the following illustrative entries.
CCN(CC)C(=O)[C@@]1(c2ccccc2)C[C@H]1CNC(=O)O[C@@H]1O[C@H](C(=O)O)[C@@H](O)[C@H](O)[C@H]1O : 16.42
CCNC(=O)[C@@]1(c2ccccc2)CC1CN (some centres undefined) : 24.6
CCN(CC)C(=O)[C@]1(c2ccccc2)C[C@@H]1CNC(=O)O[C@@H]1O[C@H](C(=O)O)[C@@H](O)[C@H](O)[C@H]1O : 195.72

// below: Cp requested for another compound
Ask | So what does the record say about Cp for CCN(CC)C(=O)C1(c2ccccc2)CC1CN (racemic) [MILNACIPRAN] ?
Reply | 208.01

* * *

We begin with a simple list: items and their reported Drug excretion.
test: Drug excretion in human urine treated with [14C]-labeled milnacipran hydrochloride at 100 mg, po after 48 to 72 hrs by HPLC analysis; type: ADME, organism-based; details: in vivo

CCN(CC)C(=O)[C@]1(c2ccccc2)C[C@@H]1CNC(=O)O[C@@H]1O[C@H](C(=O)O)[C@@H](O)[C@H](O)[C@H]1O : 0.19%
CCN(CC)C(=O)C1(c2ccccc2)CC1CN (racemic) [MILNACIPRAN] : 1.47%

// below: Drug excretion requested for another compound
Ask | So what does the record say about Drug excretion for CCNC(=O)[C@@]1(c2ccccc2)CC1CN (some centres undefined) ?
Reply | 0.73%

* * *

experiment: Drug excretion in human urine treated with [14C]-labeled milnacipran hydrochloride at 100 mg, po after 8 to 12 hrs by HPLC analysis; format: ADME, organism-based; conditions: in vivo
We begin with a simple list: items and their reported Drug excretion.
# output: bare number, implied unit %

Consider the following illustrative entries.
CCN(CC)C(=O)[C@]1(c2ccccc2)C[C@@H]1CNC(=O)O[C@@H]1O[C@H](C(=O)O)[C@@H](O)[C@H](O)[C@H]1O : 2.36
CCN(CC)C(=O)[C@@]1(c2ccccc2)C[C@H]1CNC(=O)O[C@@H]1O[C@H](C(=O)O)[C@@H](O)[C@H](O)[C@H]1O : 0.37
CCNC(=O)[C@@]1(c2ccccc2)CC1CN (some centres undefined) : 1.26

// below: Drug excretion requested for another compound
Ask | So what does the record say about Drug excretion for CCN(CC)C(=O)C1(c2ccccc2)CC1CN (racemic) ?
Reply | 7.17

* * *

test: Retention time in human urine treated with [14C]-labeled milnacipran hydrochloride at 100 mg, po by HPLC analysis; type: ADME, organism-based; settings: in vivo
We begin with a simple list: items and their reported Retention_time.
# output: bare number, implied unit min

CCN(CC)C(=O)[C@@]1(c2ccccc2)C[C@H]1CNC(=O)O[C@@H]1O[C@H](C(=O)O)[C@@H](O)[C@H](O)[C@H]1O : 24

Ask | So what does the record say about Retention_time for CCN(CC)C(=O)C1(c2ccccc2)CC1CN (racemic) [MILNACIPRAN] ?
Reply | 35

Ask | Lookup CCNC(=O)[C@@]1(c2ccccc2)CC1CN (some centres undefined)
Reply | 11

Ask | Lookup CCN(CC)C(=O)[C@]1(c2ccccc2)C[C@@H]1CNC(=O)O[C@@H]1O[C@H](C(=O)O)[C@@H](O)[C@H](O)[C@H]1O
Reply | 22

The measurements presented in this section are drawn from ChEMBL document CHEMBL3526138.
